# ASSAY_NAME: chemical genetic growth profiling, strain panel (AID 1159580);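 further: tested at 20 µM; growth read once vehicle control cultures reached saturation at 30 °C; 1 = growth at the plate median or of vehicle wells; lower values mean less growth of the strain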
# RUN_CONDITIONS: S. cerevisiae deletion strains, growth OD, locus YDL035C, strain GPR1, stronger effect = lower value
The whole screen tested about 5,500 compounds, of which about 2,000 (36%) were called active. About 18% were inconclusive and are not listed. The list shows a part of the results.
QUANTITY_MEASURED: normalized growth
Could you keep your reply to the number by itself?

// worked examples, normalized growth included
[
  {
    "MOLECULE": "CC(=O)O[C@H]1C[C@@H](OC(C)=O)C(C)(C)C2C[C@@H](OC(C)=O)[C@@]3(C)C4=CC(=O)O[C@@H](c5ccoc5)[C@]4(C)CCC3[C@]21C (some centres not stated)",
    "normalized growth": 1.01
  },
  {
    "MOLECULE": "NCC(CC(=O)O)c1ccc(Cl)s1 (configuration not stated)",
    "normalized growth": 0.994
  }
]

Entry under test: O=[N+]([O-])c1cc(O)c(O)c([N+](=O)[O-])c1 . Its normalized growth was 1

Reported normalized growth ( CN[C@H](CC(=O)O)C(=O)O ) = 0.989
